Test system: 935938-334-R-J1-PDC complex spheroid viability
Assay: Anticancer human tumor 935938-334-R-J1-PDC patient-derived small intestine adenocarcinoma cell line growth inhibition [POLQ]; active = viability on the fitted dose curve at most 10% of control; inactive = the rest
Details: second compound 10 µM; first compound 10 µM
// allowed return values: YES for active, NO for inactive

What call does the record list for CCc1cc2c(N3CCc4c(cc(Cn5ccnc5)cc4-c4cn(C)nc4C(F)(F)F)C3=O)ccnc2c(OC)n1 + Cc1cccc(N(C)C(=O)C2C(O)CCN2c2nc(C)cc(C(F)(F)F)c2C#N)c1 ?
NO

What call does the record list for CCCS(=O)(=O)Nc1ccc(F)c(C(=O)c2c[nH]c3ncc(-c4ccc(Cl)cc4)cc23)c1F + Nc1ccc(C#CCN(C(=O)Cc2ncc(C(F)(F)F)cc2C(F)(F)F)c2ccc(F)cc2)nn1 ?
NO

What call does the record list for Nc1ccn(C2OC(CO)C(O)C2(F)F)c(=O)n1 (stereo unspecified) + Cc1cccc(N(C)C(=O)C2C(O)CCN2c2nc(C)cc(C(F)(F)F)c2C#N)c1 ?
NO

What call does the record list for CCCS(=O)(=O)Nc1ccc(F)c(C(=O)c2c[nH]c3ncc(-c4ccc(Cl)cc4)cc23)c1F + Cc1cccc(N(C)C(=O)C2C(O)CCN2c2nc(C)cc(C(F)(F)F)c2C#N)c1 ?
NO

What call does the record list for CC(C)n1c(=O)n(C)c2cnc3cc(F)c(-c4ccc(OCCCN5CCCCC5)nc4)cc3c21 + Nc1ccc(C#CCN(C(=O)Cc2ncc(C(F)(F)F)cc2C(F)(F)F)c2ccc(F)cc2)nn1 ?
NO

What call does the record list for O=C(Nc1ccc(O)c(NS(=O)(=O)c2ccc(F)cc2)c1)c1ccc(-c2ccccc2)cc1 + Nc1ccc(C#CCN(C(=O)Cc2ncc(C(F)(F)F)cc2C(F)(F)F)c2ccc(F)cc2)nn1 ?
NO

What call does the record list for O=C(c1cc(Cc2n[nH]c(=O)c3ccccc23)ccc1F)N1CCN(C(=O)C2CC2)CC1 + Nc1ccc(C#CCN(C(=O)Cc2ncc(C(F)(F)F)cc2C(F)(F)F)c2ccc(F)cc2)nn1 ?
NO

What call does the record list for C#Cc1c(F)ccc2cc(O)cc(-c3ncc4c(N5CC6CCC(C5)N6)nc(OCC56CCCN5CC(F)C6)nc4c3F)c12 (stereo unspecified) + COC1C(OC(N)=O)C(O)C(Oc2ccc3c(O)c(NC(=O)c4ccc(O)c(CC=C(C)C)c4)c(=O)oc3c2C)OC1(C)C ?
NO

What call does the record list for COc1cc2cc(C(=O)CCC(=O)O)sc2cc1OC + Nc1ccc(C#CCN(C(=O)Cc2ncc(C(F)(F)F)cc2C(F)(F)F)c2ccc(F)cc2)nn1 ?
NO

What call does the record list for CCc1cc2c(N3CCc4c(cc(Cn5ccnc5)cc4-c4cn(C)nc4C(F)(F)F)C3=O)ccnc2c(OC)n1 + Nc1ccc(C#CCN(C(=O)Cc2ncc(C(F)(F)F)cc2C(F)(F)F)c2ccc(F)cc2)nn1 ?
NO

What call does the record list for C=CC(=O)N1CCN(c2nc(=O)n(-c3c(C)ccnc3C(C)C)c3nc(-c4c(O)cccc4F)c(F)cc23)C(C)C1 (stereo unspecified) + Cc1cccc(N(C)C(=O)C2C(O)CCN2c2nc(C)cc(C(F)(F)F)c2C#N)c1 ?
NO

What call does the record list for COc1cc2cc(C(=O)CCC(=O)O)sc2cc1OC + Cc1cccc(N(C)C(=O)C2C(O)CCN2c2nc(C)cc(C(F)(F)F)c2C#N)c1 ?
NO

What call does the record list for COc1cccc2c1C(=O)c1c(O)c3c(c(O)c1C2=O)CC(O)(C(=O)CO)CC3OC1CC(N)C(O)C(C)O1 (stereo unspecified) + Nc1ccc(C#CCN(C(=O)Cc2ncc(C(F)(F)F)cc2C(F)(F)F)c2ccc(F)cc2)nn1 ?
YES

What call does the record list for CNCc1ccc(-c2[nH]c3cc(F)cc4c3c2CCNC4=O)cc1 + Nc1ccc(C#CCN(C(=O)Cc2ncc(C(F)(F)F)cc2C(F)(F)F)c2ccc(F)cc2)nn1 ?
NO

What call does the record list for CC1COCCN1c1cc(-c2ccnn2C)c2ccnc(-c3ccn[nH]3)c2n1 (stereo unspecified) + COC1C(OC(N)=O)C(O)C(Oc2ccc3c(O)c(NC(=O)c4ccc(O)c(CC=C(C)C)c4)c(=O)oc3c2C)OC1(C)C ?
NO

What call does the record list for COc1ccc([C@@H](O)c2cc(-c3ncnc4cc(N5CCOCC5)ccc34)c(F)cc2Cl)nn1 + Nc1ccc(C#CCN(C(=O)Cc2ncc(C(F)(F)F)cc2C(F)(F)F)c2ccc(F)cc2)nn1 ?
NO

What call does the record list for CNCc1ccc(-c2[nH]c3cc(F)cc4c3c2CCNC4=O)cc1 + Cc1cccc(N(C)C(=O)C2C(O)CCN2c2nc(C)cc(C(F)(F)F)c2C#N)c1 ?
NO

What call does the record list for CCc1cc2c(N3CCc4c(cc(Cn5ccnc5)cc4-c4cn(C)nc4C(F)(F)F)C3=O)cc(C)nc2c(OC)n1 + COC1C(OC(N)=O)C(O)C(Oc2ccc3c(O)c(NC(=O)c4ccc(O)c(CC=C(C)C)c4)c(=O)oc3c2C)OC1(C)C ?
NO

What call does the record list for CCCS(=O)(=O)Nc1ccc(F)c(C(=O)c2c[nH]c3ncc(-c4ccc(Cl)cc4)cc23)c1F + COC1C(OC(N)=O)C(O)C(Oc2ccc3c(O)c(NC(=O)c4ccc(O)c(CC=C(C)C)c4)c(=O)oc3c2C)OC1(C)C ?
NO

What call does the record list for O=C(c1cc(Cc2n[nH]c(=O)c3ccccc23)ccc1F)N1CCN(C(=O)C2CC2)CC1 + COC1C(OC(N)=O)C(O)C(Oc2ccc3c(O)c(NC(=O)c4ccc(O)c(CC=C(C)C)c4)c(=O)oc3c2C)OC1(C)C ?
NO

What call does the record list for CC1COCCN1c1cc(C2(O)CC3CCC(C2)O3)c2cnn(-c3ccn[nH]3)c2n1 (stereo unspecified) + Nc1ccc(C#CCN(C(=O)Cc2ncc(C(F)(F)F)cc2C(F)(F)F)c2ccc(F)cc2)nn1 ?
NO

----------
Tested on: 935938-334-R-J1-PDC complex spheroid viability
Assay: Anticancer human tumor 935938-334-R-J1-PDC cell line growth inhibition [POLQ];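 note: spheroids exposed to drugs for seven days before viability read; 100% = DMSO vehicle control wells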
Conditions: second compound 10 µM; first compound 1 µM; active compounds read low
Hi there, I'd appreciate the recorded viability, T/C for every entry that follows.
Provide only the numeric value, understood in %.

Please give the measured viability, T/C for this compound: COc1cc2cc(C(=O)CCC(=O)O)sc2cc1OC + Cc1cccc(N(C)C(=O)C2C(O)CCN2c2nc(C)cc(C(F)(F)F)c2C#N)c1
112

Please give the measured viability, T/C for this compound: CC(C)n1c(=O)n(C)c2cnc3cc(F)c(-c4ccc(OCCCN5CCCCC5)nc4)cc3c21 + COC1C(OC(N)=O)C(O)C(Oc2ccc3c(O)c(NC(=O)c4ccc(O)c(CC=C(C)C)c4)c(=O)oc3c2C)OC1(C)C
160

Please give the measured viability, T/C for this compound: CC1COCCN1c1cc(C2(O)CC3CCC(C2)O3)c2cnn(-c3ccn[nH]3)c2n1 (stereo not drawn) + Nc1ccc(C#CCN(C(=O)Cc2ncc(C(F)(F)F)cc2C(F)(F)F)c2ccc(F)cc2)nn1
15.7

----------
System: 935938-334-R-J1-PDC complex spheroid viability
Assay: Anticancer human tumor 935938-334-R-J1-PDC cell line growth inhibition [POLQ];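 note: spheroids exposed to drugs for seven days before viability read; 100% = DMSO vehicle control wells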
Conditions: second compound 3.16 µM; first compound 1 µM; active compounds read low
Hi there, I'd appreciate the recorded viability, T/C for every entry that follows.
Provide only the numeric value, understood in %.

# value lookup — system 935938-334-R-J1-PDC complex spheroid viability, readout viability, T/C, item COc1cc(C2c3cc4c(cc3C(OC3OC5COC(C)OC5C(O)C3O)C3COC(=O)C23)OCO4)cc(OC)c1O (stereo unspecified) + Nc1ccc(C#CCN(C(=O)Cc2ncc(C(F)(F)F)cc2C(F)(F)F)c2ccc(F)cc2)nn1
37.6

# value lookup — system 935938-334-R-J1-PDC complex spheroid viability, readout viability, T/C, item CCc1cc2c(N3CCc4c(cc(Cn5ccnc5)cc4-c4cn(C)nc4C(F)(F)F)C3=O)cc(C)nc2c(OC)n1 + Nc1ccc(C#CCN(C(=O)Cc2ncc(C(F)(F)F)cc2C(F)(F)F)c2ccc(F)cc2)nn1
58.1

# value lookup — system 935938-334-R-J1-PDC complex spheroid viability, readout viability, T/C, item CC(C)n1c(=O)n(C)c2cnc3cc(F)c(-c4ccc(OCCCN5CCCCC5)nc4)cc3c21 + Nc1ccc(C#CCN(C(=O)Cc2ncc(C(F)(F)F)cc2C(F)(F)F)c2ccc(F)cc2)nn1
92.4

# value lookup — system 935938-334-R-J1-PDC complex spheroid viability, readout viability, T/C, item CNCc1ccc(-c2[nH]c3cc(F)cc4c3c2CCNC4=O)cc1 + COC1C(OC(N)=O)C(O)C(Oc2ccc3c(O)c(NC(=O)c4ccc(O)c(CC=C(C)C)c4)c(=O)oc3c2C)OC1(C)C
75.2

# value lookup — system 935938-334-R-J1-PDC complex spheroid viability, readout viability, T/C, item O=c1[nH]cc(F)c(=O)[nH]1 + Nc1ccc(C#CCN(C(=O)Cc2ncc(C(F)(F)F)cc2C(F)(F)F)c2ccc(F)cc2)nn1
62.1

# value lookup — system 935938-334-R-J1-PDC complex spheroid viability, readout viability, T/C, item Nc1ccn(C2OC(CO)C(O)C2(F)F)c(=O)n1 (stereo unspecified) + COC1C(OC(N)=O)C(O)C(Oc2ccc3c(O)c(NC(=O)c4ccc(O)c(CC=C(C)C)c4)c(=O)oc3c2C)OC1(C)C
16.4

# value lookup — system 935938-334-R-J1-PDC complex spheroid viability, readout viability, T/C, item CCc1c2c(nc3ccc(O)cc13)-c1cc3c(c(=O)n1C2)COC(=O)[C@]3(O)CC + Nc1ccc(C#CCN(C(=O)Cc2ncc(C(F)(F)F)cc2C(F)(F)F)c2ccc(F)cc2)nn1
30.6

# value lookup — system 935938-334-R-J1-PDC complex spheroid viability, readout viability, T/C, item COc1cc2cc(C(=O)CCC(=O)O)sc2cc1OC + Cc1cccc(N(C)C(=O)C2C(O)CCN2c2nc(C)cc(C(F)(F)F)c2C#N)c1
95.9

# value lookup — system 935938-334-R-J1-PDC complex spheroid viability, readout viability, T/C, item COc1ccc([C@@H](O)c2cc(-c3ncnc4cc(N5CCOCC5)ccc34)c(F)cc2Cl)nn1 + Nc1ccc(C#CCN(C(=O)Cc2ncc(C(F)(F)F)cc2C(F)(F)F)c2ccc(F)cc2)nn1
80.5

# value lookup — system 935938-334-R-J1-PDC complex spheroid viability, readout viability, T/C, item O=C(Nc1ccc(O)c(NS(=O)(=O)c2ccc(F)cc2)c1)c1ccc(-c2ccccc2)cc1 + COC1C(OC(N)=O)C(O)C(Oc2ccc3c(O)c(NC(=O)c4ccc(O)c(CC=C(C)C)c4)c(=O)oc3c2C)OC1(C)C
109

# value lookup — system 935938-334-R-J1-PDC complex spheroid viability, readout viability, T/C, item CCCS(=O)(=O)Nc1ccc(F)c(C(=O)c2c[nH]c3ncc(-c4ccc(Cl)cc4)cc23)c1F + Cc1cccc(N(C)C(=O)C2C(O)CCN2c2nc(C)cc(C(F)(F)F)c2C#N)c1
151

# value lookup — system 935938-334-R-J1-PDC complex spheroid viability, readout viability, T/C, item COc1cc2cc(C(=O)CCC(=O)O)sc2cc1OC + Nc1ccc(C#CCN(C(=O)Cc2ncc(C(F)(F)F)cc2C(F)(F)F)c2ccc(F)cc2)nn1
105

# value lookup — system 935938-334-R-J1-PDC complex spheroid viability, readout viability, T/C, item COc1cccc(OCCCN)c1-c1cc(Nc2cnc(C#N)cn2)n[nH]1 + Nc1ccc(C#CCN(C(=O)Cc2ncc(C(F)(F)F)cc2C(F)(F)F)c2ccc(F)cc2)nn1
8.73

# value lookup — system 935938-334-R-J1-PDC complex spheroid viability, readout viability, T/C, item CC1COCCN1c1cc(C2(O)CC3CCC(C2)O3)c2cnn(-c3ccn[nH]3)c2n1 (stereo unspecified) + Nc1ccc(C#CCN(C(=O)Cc2ncc(C(F)(F)F)cc2C(F)(F)F)c2ccc(F)cc2)nn1
21.3

# value lookup — system 935938-334-R-J1-PDC complex spheroid viability, readout viability, T/C, item CCc1cc2c(N3CCc4c(cc(Cn5ccnc5)cc4-c4cn(C)nc4C(F)(F)F)C3=O)ccnc2c(OC)n1 + Cc1cccc(N(C)C(=O)C2C(O)CCN2c2nc(C)cc(C(F)(F)F)c2C#N)c1
79

# value lookup — system 935938-334-R-J1-PDC complex spheroid viability, readout viability, T/C, item CCc1cc2c(N3CCc4c(cc(Cn5ccnc5)cc4-c4cn(C)nc4C(F)(F)F)C3=O)ccnc2c(OC)n1 + COC1C(OC(N)=O)C(O)C(Oc2ccc3c(O)c(NC(=O)c4ccc(O)c(CC=C(C)C)c4)c(=O)oc3c2C)OC1(C)C
59.5

# value lookup — system 935938-334-R-J1-PDC complex spheroid viability, readout viability, T/C, item CCCS(=O)(=O)Nc1ccc(F)c(C(=O)c2c[nH]c3ncc(-c4ccc(Cl)cc4)cc23)c1F + Nc1ccc(C#CCN(C(=O)Cc2ncc(C(F)(F)F)cc2C(F)(F)F)c2ccc(F)cc2)nn1
158

# value lookup — system 935938-334-R-J1-PDC complex spheroid viability, readout viability, T/C, item CNCc1ccc(-c2[nH]c3cc(F)cc4c3c2CCNC4=O)cc1 + Nc1ccc(C#CCN(C(=O)Cc2ncc(C(F)(F)F)cc2C(F)(F)F)c2ccc(F)cc2)nn1
106

# value lookup — system 935938-334-R-J1-PDC complex spheroid viability, readout viability, T/C, item CNCc1ccc(-c2[nH]c3cc(F)cc4c3c2CCNC4=O)cc1 + Cc1cccc(N(C)C(=O)C2C(O)CCN2c2nc(C)cc(C(F)(F)F)c2C#N)c1
102

# value lookup — system 935938-334-R-J1-PDC complex spheroid viability, readout viability, T/C, item CCc1cc2c(N3CCc4c(cc(Cn5ccnc5)cc4-c4cn(C)nc4C(F)(F)F)C3=O)cc(C)nc2c(OC)n1 + Cc1cccc(N(C)C(=O)C2C(O)CCN2c2nc(C)cc(C(F)(F)F)c2C#N)c1
70.7

# value lookup — system 935938-334-R-J1-PDC complex spheroid viability, readout viability, T/C, item C=CCn1c(=O)c2cnc(Nc3ccc(N4CCN(C)CC4)cc3)nc2n1-c1cccc(C(C)(C)O)n1 + Cc1cccc(N(C)C(=O)C2C(O)CCN2c2nc(C)cc(C(F)(F)F)c2C#N)c1
26.2
